meta.source: ChEMBL document CHEMBL1201862

# Tested on: CCRF-CEM
# protocolNotes: NCI tumour cell line growth inhibition, 48 h
The source made the active and inactive calls. No stated cut-off is given here; in the data, active = GI50 up to about 1.1 µM and inactive = higher.
Could you please pick one outcome from this set? active, inactive

O=C(Nc1nc2ccccc2n1Cc1ccccc1)NC12CC3CC(CC(C3)C1)C2: inactive
CCCCOc1ccc(NC(=N)Nc2ccc(Cl)cc2)cc1: active
C=C(C)[C@@]1(OC(=O)c2cc([N+](=O)[O-])cc([N+](=O)[O-])c2)C[C@@H]2CCCC[C@@H]21: inactive
CC(=N/NC(N)=S)/C(C)=N/NC(N)=S: inactive
O=C1N[C@@H](O)[C@@H]2ON=C(c3ccccc3)[C@H]12: inactive

Now take the following molecule into account.
Q: Please let me know the test result on file for Clc1ccc(/C=N/c2ccc(Oc3ccc(Cl)cc3)c(Cl)c2)cc1 .
Result: inactive

---

# System: SK-MEL-28
# protocolNotes: NCI tumour cell line growth inhibition, 48 h
Calls of active or inactive are those of the source. No stated cut-off is given here; in the data, active = GI50 up to about 1.1 µM and inactive = higher.
Could you please pick one outcome from this set? active, inactive

Take a look at these entries with their results.
NC(=O)N/N=C(\Cc1cc(=O)oc2cc(O)ccc12)C(=O)Nc1ccccc1C(N)=O: inactive
CCC(=O)c1cc(C(=O)C(=S)SC)cc(C(=O)C(=S)SC)c1: inactive

Now take the following compound into account.
Q: Please let me know the test result on file for O=C1c2ccccc2C(=O)c2nc(-c3ccccc3)c(-c3ccccc3)nc21 .
Result: inactive

---

We begin with a simple list: items and their reported GI50.
# System: SF-295
# protocolNotes: NCI tumour cell line growth inhibition, 48 h
Calls of active or inactive are those of the source. No stated cut-off is given here; in the data, active = GI50 up to about 1.1 µM and inactive = higher.

CC(=O)c1ccc(NC(=O)C(=O)C(C(=O)/C=C/c2ccccc2)C2OC(=O)c3ccccc32)cc1 (stereo unspecified): > 100 µM (inactive)
O=[N+]([O-])c1nccn1CC(O)c1ccc(F)cc1 (stereo unspecified): > 100 µM (inactive)
ClCCN1CCOC1=C1C=CC=C1: > 100 µM (inactive)
CC1(C)C2CCC1(C)C(NC(=O)COCCOCC(N)=O)C2 (stereo unspecified): > 100 µM (inactive)
C1=CC(N(c2ccccc2)C2C=CCCC2)CCC1 (stereo unspecified): 85.7 µM (inactive)

Q: API: value(readout= GI50, system= SF-295, query= C[N+]1=C2[B-](C(C)(C)C)=[N+](C(C)(C)C)[B-]2(C(C)(C)C)[N+](C)=C2[B-](C(C)(C)C)=[N+](C(C)(C)C)[B-]21C(C)(C)C (stereo unspecified) )
Result: 61.9 µM (inactive)

Q: Same question for COC(=O)C(Cc1ccccc1)C(=O)NC(CNC(=O)OCc1ccccc1)C(=O)OCc1ccccc1 (stereo unspecified) please.
Result: 47.1 µM (inactive)

Q: Same question for COc1ccc2c(c1)CC[C@@H]1C2CC[C@]2(C)C(=O)N(CCN3CCCCC3)C(=O)CC12 (stereo partly specified) please.
Result: > 100 µM (inactive)

Q: Same question for C[N+](C)(N)CCC[N+](C)(C)N please.
Result: > 100 µM (inactive)

Q: Same question for CC(/C=N/N(C)C1=NCCCCN1)=N/N(C)C1=NCCCCN1 please.
Result: > 100 µM (inactive)

Q: Same question for COc1cc(/C=C/C(=O)OC2C(O)C3CC(OC(=O)c4cc(OC)c(OC)c(OC)c4)CC2N3C)cc(OC)c1OC (stereo unspecified) please.
Result: 23.4 µM (inactive)
